Attribution: patent US8290713

target: α-synuclein (UniProt P37840 1-140); test: cell-based or functional assay; also: test concentration or dose not given here
Non-standard residues stand in square brackets, D forms with d.
For each entry below, report its % increase in Lag phase value.
Unit % implied. Number only.

Any idea what % increase in Lag phase was measured for H-[dQ][dY][dS][dV][dL][dI]-NH2 (SMILES CC[C@@H](C)[C@@H](NC(=O)[C@@H](CC(C)C)NC(=O)[C@H](NC(=O)[C@@H](CO)NC(=O)[C@@H](Cc1ccc(O)cc1)NC(=O)[C@H](N)CCC(N)=O)C(C)C)C(N)=O) [ZP-0215] ?
3.1

Any idea what % increase in Lag phase was measured for Ac-[dH][dH][dV][dI][dV][dY]-NH2 (SMILES CC[C@@H](C)[C@@H](NC(=O)[C@H](NC(=O)[C@@H](Cc1c[nH]cn1)NC(=O)[C@@H](Cc1c[nH]cn1)NC(C)=O)C(C)C)C(=O)N[C@@H](C(=O)N[C@H](Cc1ccc(O)cc1)C(N)=O)C(C)C) [ZP-0171] ?
43.6
